# Experimental context: in toluene, 313.15 K

| Compound | solubility (mole fraction) |
| --- | --- |
| CCc1cccc2c3c([nH]c12)C(CC)(CC(=O)O)OCC3 (stereo unspecified) | 0.0065 |

###

# Experimental context: in n-propanol, 298.15 K

| Compound | solubility (mole fraction) |
| --- | --- |
| CCc1cccc2c3c([nH]c12)C(CC)(CC(=O)O)OCC3 (stereo unspecified) | 0.0648 |

###

# Experimental context: in n-propanol, 318.15 K
Measurement type: solubility (mole fraction)

| Compound | Result value |
| --- | --- |
| CCc1cccc2c3c([nH]c12)C(CC)(CC(=O)O)OCC3 (stereo unspecified) | 0.114 |

###

# Experimental context: in acetone, 283.15 K
Measurement type: solubility (mole fraction)

| Compound | Result value |
| --- | --- |
| CCc1cccc2c3c([nH]c12)C(CC)(CC(=O)O)OCC3 (stereo unspecified) | 0.101 |

###

# Experimental context: in n-pentyl acetate, 323.15 K

| Molecule | solubility (mole fraction) |
| --- | --- |
| CCc1cccc2c3c([nH]c12)C(CC)(CC(=O)O)OCC3 (stereo unspecified) | 0.108 |

###

# Experimental context: in isopropanol, 288.15 K

| Compound | solubility (mole fraction) |
| --- | --- |
| CCc1cccc2c3c([nH]c12)C(CC)(CC(=O)O)OCC3 (stereo unspecified) | 0.0363 |

###

# Experimental context: in n-butanol, 323.15 K

| Molecule | solubility (mole fraction) |
| --- | --- |
| CCc1cccc2c3c([nH]c12)C(CC)(CC(=O)O)OCC3 (stereo unspecified) | 0.135 |

###

# Experimental context: in isobutanol, 318.15 K

| Compound | solubility (mole fraction) |
| --- | --- |
| CCc1cccc2c3c([nH]c12)C(CC)(CC(=O)O)OCC3 (stereo unspecified) | 0.104 |

###

# Experimental context: in n-pentyl acetate, 278.15 K
Measurement type: solubility (mole fraction)

| Molecule | Measurement type | Result value |
| --- | --- | --- |
| CCc1cccc2c3c([nH]c12)C(CC)(CC(=O)O)OCC3 (stereo unspecified) | solubility (mole fraction) | 0.0453 |

###

# Experimental context: in isopentyl acetate, 323.15 K
Measurement type: solubility (mole fraction)

| Molecule | Measurement type | Result value |
| --- | --- | --- |
| CCc1cccc2c3c([nH]c12)C(CC)(CC(=O)O)OCC3 (stereo unspecified) | solubility (mole fraction) | 0.105 |

###

# Experimental context: in n-butanol, 283.15 K
Measurement type: solubility (mole fraction)

| Compound | Measurement type | Result value |
| --- | --- | --- |
| CCc1cccc2c3c([nH]c12)C(CC)(CC(=O)O)OCC3 (stereo unspecified) | solubility (mole fraction) | 0.0422 |

###

# Experimental context: in isopentyl acetate, 278.15 K

| Molecule | solubility (mole fraction) |
| --- | --- |
| CCc1cccc2c3c([nH]c12)C(CC)(CC(=O)O)OCC3 (stereo unspecified) | 0.0413 |

###

# Experimental context: in toluene, 318.15 K
Measurement type: solubility (mole fraction)

| Compound | Measurement type | Result value |
| --- | --- | --- |
| CCc1cccc2c3c([nH]c12)C(CC)(CC(=O)O)OCC3 (stereo unspecified) | solubility (mole fraction) | 0.00838 |
